Data provenance: ChEMBL document CHEMBL4765310

Test system: SW-620
Experiment: Antiproliferative activity against human SW-620 cells assessed as inhibition of cell viability measured after 72 hrs by MTT assay
Assay type: functional, cell-based
Conditions: SW-620, 72 h
pIC50: −log10 of the molar value.
The label depends only on pIC50: yes if it is at least 5, no if it is smaller.

Task: Record `COc1cc(Oc2cccc(Nc3ccccc3)c2)cc(OC)c1CN(C)C` ; criterion: pIC50 no lower than 5. Met?
Output: no

Task: Record `COc1ccc(CCNCc2ccc(Oc3cccc(Nc4ccccc4)c3)cc2)cc1` ; criterion: pIC50 no lower than 5. Met?
Output: no

Task: Record `COc1ccc(CCCNCc2c(OC)cc(Oc3ccc(Nc4ccccc4)cc3)cc2OC)cc1` ; criterion: pIC50 no lower than 5. Met?
Output: no

Task: Record `COc1cc(Oc2cccc(Nc3ccccc3)c2)cc(OC)c1CNC12CC3CC(CC(C3)C1)C2` ; criterion: pIC50 no lower than 5. Met?
Output: no

Task: Record `CCN1CCN(Cc2c(OC)cc(Oc3cccc(Nc4ccccc4)c3)cc2OC)CC1` ; criterion: pIC50 no lower than 5. Met?
Output: no

Task: Record `COc1cc(Oc2cccc(Nc3ccccc3)c2)cc(OC)c1CNCc1ccc(F)cc1` ; criterion: pIC50 no lower than 5. Met?
Output: yes

Task: Record `COc1cc(Oc2cccc(Nc3ccccc3)c2)cc(OC)c1CN1CCN(CCO)CC1` ; criterion: pIC50 no lower than 5. Met?
Output: no

Task: Record `COc1ccc(CCNCc2c(OC)cc(Oc3cccc(Nc4ccccc4)c3)cc2OC)cc1` ; criterion: pIC50 no lower than 5. Met?
Output: yes

Task: Record `COc1cc(Oc2cccc(Nc3ccccc3)c2)cc(OC)c1CNCc1ccc(Cl)cc1` ; criterion: pIC50 no lower than 5. Met?
Output: yes

Task: Record `CNCc1c(OC)cc(Oc2cccc(Nc3ccccc3)c2)cc1OC` ; criterion: pIC50 no lower than 5. Met?
Output: no

###

System: HCT-15
Test: Antiproliferative activity against human HCT-15 cells assessed as inhibition of cell viability measured after 72 hrs by MTT assay
Format: functional, cell-based
Conditions: HCT-15, 72 h
reported.endpoint: pIC50
The scale used: pIC50 is minus the common logarithm of the concentration in molar units.

smiles.string	pIC50
COc1cc(Oc2cccc(Nc3ccccc3)c2)cc(OC)c1CNCc1ccc(F)cc1	5.44
COc1cc(Oc2cccc(Nc3ccccc3)c2)cc(OC)c1CNCCc1ccc(Cl)cc1	5.42
COc1cc(Oc2cccc(Nc3ccccc3)c2)cc(OC)c1CN(C)C	4.81
COc1ccc(CNCc2c(OC)cc(Oc3cccc(Nc4ccccc4)c3)cc2OC)cc1	5.58
COc1ccc(CCNCc2ccc(Oc3cccc(Nc4ccccc4)c3)c(OC)c2)cc1	5.47
COc1cc(Oc2cccc(Nc3ccccc3)c2)cc(OC)c1CNCCNC(C)=O	5.29
COc1cc(Oc2cccc(Nc3ccccc3)c2)cc(OC)c1CN[C@H](C)c1ccccc1	5.12
COc1cc(Oc2cccc(Nc3ccccc3)c2)cc(OC)c1CN1CCN(CCO)CC1	5.19
COc1ccc(CCCNCc2c(OC)cc(Oc3ccc(Nc4ccccc4)cc3)cc2OC)cc1	5.66

Task: Return reported pIC50; argument: `COc1cccc(CCNCc2c(OC)cc(Oc3cccc(Nc4ccccc4)c3)cc2OC)c1`
Output: 5.89

###

Test: Inhibition of dimerization of N-terminal His6-tagged human c-Myc bHLHZip domain (353 to 439 residues)/Max(151 residues) (unknown origin) expressed in Escherichia coli BL21DE3 measured after 1 hr by ELISA
Lab note - cut at 100 µM for IC50: satisfied if strictly below, not satisfied if not.

Some solved entries appear below for comparison.
smiles.string	assigned.category
COc1cc(Oc2cccc(Nc3ccccc3)c2)cc(OC)c1CNCc1ccc(Cl)cc1	not satisfied
COc1cc(Oc2cccc(Nc3ccccc3)c2)cc(OC)c1CN(C)C	not satisfied
COc1ccc(CCCNCc2c(OC)cc(Oc3cccc(Nc4ccccc4)c3)cc2OC)cc1	not satisfied
CCN1CCN(Cc2c(OC)cc(Oc3cccc(Nc4ccccc4)c3)cc2OC)CC1	not satisfied
COc1ccc(CNCc2c(OC)cc(Oc3cccc(Nc4ccccc4)c3)cc2OC)cc1	satisfied

Task: # check: IC50 < 100 µM for `COc1cc(Oc2cccc(Nc3ccccc3)c2)cc(OC)c1CNC12CC3CC(CC(C3)C1)C2`
Output: not satisfied

Task: # check: IC50 < 100 µM for `COc1cc(Oc2cccc(Nc3ccccc3)c2)cc(OC)c1CNC1CC1`
Output: not satisfied

###

Organism: Homo sapiens
Assay: Inhibition of dimerization of N-terminal His6-tagged human c-Myc bHLHZip domain (353 to 439 residues)/Max(151 residues) (unknown origin) expressed in Escherichia coli BL21DE3 assessed as inhibition of c-Myc/Max/DNA complex formation at 20 uM preincubated with c-Myc/Max for 1.5 hrs followed by incubation with DNA oligo for 0.5 hrs by EMSA analysis relative to control
Settings: time 2.0 hrs
reported.endpoint: inhibition (%)
Quick note: give the figure in %, leave out the unit.

smiles.string	measure.unit	value.measured
COc1cc(Oc2cccc(Nc3ccccc3)c2)cc(OC)c1CN(C)C	%	3.2
COc1ccc(CNCc2c(OC)cc(Oc3cccc(Nc4ccccc4)c3)cc2OC)cc1	%	48.7

Now, please, on to the next compound.
Task: Return reported inhibition; argument: `COc1cc(Oc2cccc(Nc3ccccc3)c2)cc(OC)c1CNCCc1ccccc1`
Output: 45.1

###

Assay: Inhibition of dimerization of N-terminal His6-tagged human c-Myc bHLHZip domain (353 to 439 residues)/Max(151 residues) (unknown origin) expressed in Escherichia coli BL21DE3 measured after 1 hr by ELISA
pIC50: −log10 of the molar value.
// pIC50 lookup, one value per entry

Take a look at these entries with their results.
smiles.string	pIC50
COc1cc(Oc2cccc(Nc3ccccc3)c2)cc(OC)c1CNC(C)C	< 3.82
COc1cc(Oc2cccc(Nc3ccccc3)c2)cc(OC)c1CNCCNC(C)=O	< 3.82

Now, please, on to the next compound.
Task: Return reported pIC50; argument: `CNCc1c(OC)cc(Oc2cccc(Nc3ccccc3)c2)cc1OC`
Output: < 3.82

###

// pIC50 lookup, one value per entry
Test: Inhibition of dimerization of N-terminal His6-tagged human c-Myc bHLHZip domain (353 to 439 residues)/Max(151 residues) (unknown origin) expressed in Escherichia coli BL21DE3 measured after 1 hr by ELISA
The scale used: pIC50 is minus the common logarithm of the concentration in molar units.

smiles.string	reported.endpoint	value.measured
COc1ccccc1CCNCc1c(OC)cc(Oc2cccc(Nc3ccccc3)c2)cc1OC	pIC50	4.14
COc1cc(Oc2cccc(Nc3ccccc3)c2)cc(OC)c1CNCCc1ccc(C)cc1	pIC50	4.06
COc1cc(Oc2cccc(Nc3ccccc3)c2)cc(OC)c1CNCc1ccc2c(c1)OCO2	pIC50	3.98
COc1cc(Oc2cccc(Nc3ccccc3)c2)cc(OC)c1CNCc1ccccc1	pIC50	3.90
COc1cc(Oc2cccc(Nc3ccccc3)c2)cc(OC)c1CNCCc1ccc(F)cc1	pIC50	4.02
COc1ccc(CCNCc2ccc(Oc3cccc(Nc4ccccc4)c3)cc2)cc1	pIC50	3.94

Task: Return reported pIC50; argument: `COc1cc(Oc2cccc(Nc3ccccc3)c2)cc(OC)c1CNCc1ccc(Br)cc1`
Output: 3.89

Task: Return reported pIC50; argument: `COc1ccc(CCCNCc2c(OC)cc(Oc3ccc(Nc4ccccc4)cc3)cc2OC)cc1`
Output: 4.14

###

Assay: Inhibition of dimerization of N-terminal His6-tagged human c-Myc bHLHZip domain (353 to 439 residues)/Max(151 residues) (unknown origin) expressed in Escherichia coli BL21DE3 measured after 1 hr by ELISA
reported.endpoint: pIC50
The scale used: pIC50 is minus the common logarithm of the concentration in molar units.

Take a look at these entries with their results.
smiles.string	pIC50
COc1cc(Oc2cccc(Nc3ccccc3)c2)cc(OC)c1CNCc1ccc(F)cc1	3.86
COc1ccc(CCNCc2ccc(Oc3cccc(Nc4ccccc4)c3)cc2OC)cc1	3.99
COc1cc(Oc2cccc(Nc3ccccc3)c2)cc(OC)c1CNCCc1ccc(Cl)cc1	4.04

Task: Return reported pIC50; argument: `COc1cc(Oc2cccc(Nc3ccccc3)c2)cc(OC)c1CNCc1ccc(C)cc1`
Output: 3.92
